Test system: A498 renal
Experiment: NCI-60 one-dose screen, 48 h (100 = growth as untreated, 0 = no growth, -100 = all killed)
Settings: 10 µM unless noted
About 83,000 compounds went through this panel and 20% of them were active in at least one assay; those are over-represented in the sample as a whole.
observable: growth (%)
Response body: numeric value in %, unit text excluded.

Sample answers from the record:
Task item: What growth value was documented for this compound, `CC(=O)Nc1ccc(S(=O)(=O)NC2CCCCC2)cc1` ?
Reply: 64.3

Task item: And the next one, COc1ccc(C(O)c2cc3c(N)c(C(=O)Nc4cccc(Br)c4C)sc3nc2C)cc1 (centres undefined) ?
Reply: -16.1

Task item: And the next one, `O=C(O)CNC(=O)CN1C(=O)c2ccccc2C1=O` ?
Reply: 104

Task item: And the next one, `O=C(Nc1nc2ccc(C(=O)N3CCN(c4ccc(Cl)c(Cl)c4)CC3)cc2s1)c1ccc(NCCc2ccccc2)c([N+](=O)[O-])c1` ?
Reply: 79.4

Task item: And the next one, COc1ccc2c(c1)OC1=C(C(=O)OC1)C2c1cc(OC)c(OC)c(OC)c1 (centres undefined) ?
Reply: -1.39

Next:
Task item: What growth value was documented for this compound, `Cc1cc(C)c(C=O)c(C)c1` ?
Reply: 102

Task item: And the next one, `O=C(N/N=C/c1ccc(F)cc1)c1ccccc1Nc1cccc(C(F)(F)F)c1` ?
Reply: 70.8

Task item: And the next one, `O=S(=O)(NCCCNc1nccc(-c2c(-c3ccc(F)c(O)c3)nc3sccn23)n1)c1ccc(F)cc1` ?
Reply: -10.9

Task item: And the next one, `COc1ccc(C(=O)c2cc3c(N)c(C(=O)Nc4cccc(Br)c4C)sc3nc2C)cc1` ?
Reply: -13.2

Task item: And the next one, `COc1cc(-c2cc(=O)oc3cc(O)ccc23)c(OC)c2c1OCO2` ?
Reply: 94.6
